# Test system: mice
# Assay Details: Acute toxicity (dead/treated animals) in the Irwin test
# Format: in vivo
# Condition Summary: 300 mg/kg i.p.

Molecule: COc1cc2c(cc1OC)C(C=Cc1cccs1)=NN=C(C)C2 [Example 70]
acute toxicity (dead/treated animals): 2/6
--
Molecule: CCC1C(C)=NN=C(C=Cc2ccc(N(C)C)cc2)c2cc(OC)c(OC)cc21 (stereo not drawn) [Example 37]
acute toxicity (dead/treated animals): 0/5
--
Molecule: COc1cc2c(cc1OC)C(C=Cc1cccc(Cl)c1)=NN=C(C)C2 [Example 51]
acute toxicity (dead/treated animals): 0/6
--
Molecule: COc1cc(OC)c(C=CC2=NN=C(C)Cc3cc(OC)c(OC)cc32)c(OC)c1 [Example 58]
acute toxicity (dead/treated animals): 0/5
--
Molecule: COc1cc2c(cc1OC)C(c1cccc(Cl)c1)=NN=C(C)C2 [girisopam, reference compound]
acute toxicity (dead/treated animals): 0/6
--
Molecule: COc1cc2c(cc1OC)C(C=Cc1ccc(OC)c(C(C)C)c1)=NN=C(C)C2 [Example 40]
acute toxicity (dead/treated animals): 0/5
--
Molecule: COc1ccc(C=CC2=NN=C(C)Cc3cc(OC)c(OC)cc32)c(OC)c1 [Example 5]
acute toxicity (dead/treated animals): 0/5
--
Molecule: CCN(CC)c1ccc(C=CC2=NN=C(C)Cc3cc(OC)c(OC)cc32)cc1 [Example 49]
acute toxicity (dead/treated animals): 0/5
--
Molecule: COc1cc2c(cc1OC)C(C=Cc1ccc(N(C)C)cc1)=NN=C(C)C2 [Example 4]
acute toxicity (dead/treated animals): 1/5
--
Molecule: COc1ccc(C=CC2=NN=C(C)Cc3cc(OC)c(OC)cc32)cc1OC [Example 3]
acute toxicity (dead/treated animals): 5/6
--
Molecule: COc1cc2c(cc1OC)C(c1ccc(N)cc1)=NN=C(C)C2 [nerisopam, reference compound]
acute toxicity (dead/treated animals): 5/6
--
Molecule: COc1cc2c(cc1OC)C(C=Cc1ccccc1Cl)=NN=C(C)C2 [Example 54]
acute toxicity (dead/treated animals): 2/5

###

# Test system: mice
# Assay Details: Acute toxicity (dead/treated animals) in the Irwin test
# Assay type: in vivo
# Condition Summary: 1000 mg/kg p.o.

Compound: COc1ccc(C=CC2=NN=C(C)Cc3cc(OC)c(OC)cc32)c(OC)c1
acute toxicity (dead/treated animals): 0/5
--
Compound: COc1cc2c(cc1OC)C(C=Cc1cccs1)=NN=C(C)C2
acute toxicity (dead/treated animals): 0/6
--
Compound: CCN(CC)c1ccc(C=CC2=NN=C(C)Cc3cc(OC)c(OC)cc32)cc1
acute toxicity (dead/treated animals): 3/5
--
Compound: COc1cc2c(cc1OC)C(C=Cc1ccc(NC(C)=O)cc1)=NN=C(C)C2
acute toxicity (dead/treated animals): 1/5
--
Compound: COc1cc2c(cc1OC)C(C=Cc1ccccc1F)=NN=C(C)C2
acute toxicity (dead/treated animals): 0/6
--
Compound: COc1cc(OC)c(C=CC2=NN=C(C)Cc3cc(OC)c(OC)cc32)c(OC)c1
acute toxicity (dead/treated animals): 0/5
--
Compound: CCC1C(C)=NN=C(C=Cc2cccc(Cl)c2)c2cc(OC)c(OC)cc21 (stereo not shown)
acute toxicity (dead/treated animals): 0/5
--
Compound: COc1cc2c(cc1OC)C(C=Cc1ccccc1C)=NN=C(C)C2
acute toxicity (dead/treated animals): 0/5
--
Compound: COc1cc2c(cc1OC)C(C=Cc1cccc(Cl)c1)=NN=C(C)C2
acute toxicity (dead/treated animals): 0/6
--
Compound: COc1cc2c(cc1OC)C(C=Cc1ccc(OC)c(C(C)C)c1)=NN=C(C)C2
acute toxicity (dead/treated animals): 4/5
--
Compound: COc1cc2c(cc1OC)C(C=Cc1ccc(N(C)C)cc1)=NN=C(C)C2
acute toxicity (dead/treated animals): 1/5
--
Compound: COc1cc2c(cc1OC)C(C=Cc1ccc(Cl)c(N)c1)=NN=C(C)C2
acute toxicity (dead/treated animals): 0/5
--
Compound: CCC1C(C)=NN=C(C=Cc2ccc(N(C)C)cc2)c2cc(OC)c(OC)cc21 (stereo not shown)
acute toxicity (dead/treated animals): 4/5
--
Compound: COc1ccc(C=CC2=NN=C(C)Cc3cc(OC)c(OC)cc32)cc1OC
acute toxicity (dead/treated animals): 5/6
--
Compound: COc1cc2c(cc1OC)C(C=Cc1ccc(Cl)c(NC(C)=O)c1)=NN=C(C)C2
acute toxicity (dead/treated animals): 0/5
--
Compound: COc1cc2c(cc1OC)C(C=Cc1ccc3c(c1)OCO3)=NN=C(C)C2
acute toxicity (dead/treated animals): 0/6
--
Compound: CCC1C(C)=NN=C(C=Cc2ccc(OC)c(OC)c2)c2cc(OC)c(OC)cc21 (stereo not shown)
acute toxicity (dead/treated animals): 0/5
--
Compound: COc1cc2c(cc1OC)C(C=Cc1cc(OC)c(OC)c(OC)c1)=NN=C(C)C2
acute toxicity (dead/treated animals): 0/6
--
Compound: COc1cc2c(cc1OC)C(C=Cc1ccccc1Cl)=NN=C(C)C2
acute toxicity (dead/treated animals): 2/5
